Kindly state Activity for each of the entries shown.
# testSystem: Polyunsaturated fatty acid lipoxygenase ALOX15 (Homo sapiens) (UniProt P16050)
# Sequence (P16050 whole entry): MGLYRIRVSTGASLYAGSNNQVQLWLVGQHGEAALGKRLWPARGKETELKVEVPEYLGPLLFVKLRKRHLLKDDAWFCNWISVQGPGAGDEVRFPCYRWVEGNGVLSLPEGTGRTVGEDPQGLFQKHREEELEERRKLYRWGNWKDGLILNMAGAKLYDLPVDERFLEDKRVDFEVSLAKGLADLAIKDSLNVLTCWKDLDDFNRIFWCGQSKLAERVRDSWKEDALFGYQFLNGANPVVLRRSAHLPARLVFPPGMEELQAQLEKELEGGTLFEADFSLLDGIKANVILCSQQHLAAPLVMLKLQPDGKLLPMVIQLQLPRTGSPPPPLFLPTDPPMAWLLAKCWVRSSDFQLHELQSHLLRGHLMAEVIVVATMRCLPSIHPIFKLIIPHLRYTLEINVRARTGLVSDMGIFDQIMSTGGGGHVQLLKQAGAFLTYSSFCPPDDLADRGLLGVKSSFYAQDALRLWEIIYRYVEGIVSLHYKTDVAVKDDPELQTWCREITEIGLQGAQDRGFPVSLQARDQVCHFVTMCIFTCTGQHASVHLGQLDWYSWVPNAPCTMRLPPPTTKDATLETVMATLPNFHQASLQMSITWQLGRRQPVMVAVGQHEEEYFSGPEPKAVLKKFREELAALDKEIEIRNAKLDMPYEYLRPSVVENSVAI
# assayText: Inhibition of recombinant human 15-LOX-1 expressed in Escherichia coli BL21(DE3) assessed as residual activity at 50 uM using linoleic acid as substrate preincubated for 10 mins followed by substrate addition
Write the answer as a number in %, unit excluded.

# input Short answer please: Activity, Polyunsaturated fatty acid lipoxygenase ALOX15 (Homo sapiens) (UniProt P16050), entry COc1ccc(C(=O)c2[nH]c(N)c(C(=O)c3c[nH]c4ccccc34)c2-c2ccc(F)c(OC)c2)cc1
# output 75.8

# input I'm curious: which Activity was measured for Nc1[nH]c(C(=O)c2ccccc2)c(-c2ccncc2)c1C(=O)NCCc1c[nH]c2ccccc12 tested on Polyunsaturated fatty acid lipoxygenase ALOX15 (Homo sapiens) (UniProt P16050)?
# output 106

# input Item Nc1[nH]c(C(=O)c2ccccc2)c(-c2ccc(C(F)(F)F)cc2)c1C(=O)NCc1ccc(Cl)cc1Cl with Polyunsaturated fatty acid lipoxygenase ALOX15 (Homo sapiens) (UniProt P16050) - Activity?
# output 74.7

# input Short answer please: Activity, Polyunsaturated fatty acid lipoxygenase ALOX15 (Homo sapiens) (UniProt P16050), entry Cc1ccc(S(=O)(=O)n2c(-c3ccccc3)cc(C(=O)NC3CC3)c2N)cc1
# output 92.2
